Test system: RXF 393 renal
assay_info: NCI-60 one-dose screen, 48 h
condition_set: 10 µM unless noted
About 83,000 compounds went through this panel and 20% of them were active in at least one assay; those are over-represented in the sample as a whole. Calls of active or inactive are those of the source. How the source made its calls: active means growth percent below 10; inactive means the rest.
Outcome codes: YES = active, NO = inactive

[
  {
    "smiles_notation": "O=C(N/N=C\\c1ccc(F)cc1)c1ccc2nc(-c3ccc(Br)cc3)[nH]c2c1",
    "discrete_label": "YES"
  },
  {
    "smiles_notation": "O=C(/C=C/c1ccc(F)cc1)Nc1cccc2cccnc12",
    "discrete_label": "NO"
  },
  {
    "smiles_notation": "CC1=C(C)C(=O)C(Nc2cccc(C(F)(F)F)c2)=C(Br)C1=O",
    "discrete_label": "NO"
  },
  {
    "smiles_notation": "Cn1ncc2c(C(=O)c3ccc(F)cc3)nc(C(C)(C)C)nc21",
    "discrete_label": "NO"
  },
  {
    "smiles_notation": "O=C(/C=C/c1ccccc1)c1cccc(O)c1",
    "discrete_label": "NO"
  },
  {
    "smiles_notation": "O=C1/C(=C/C=C/c2ccco2)SC(=S)N1Cc1ccccc1",
    "discrete_label": "NO"
  }
]

---

Tested on: NCI-H522 lung
assay_info: NCI-60 one-dose screen, 48 h (100 = growth as untreated, 0 = no growth, -100 = all killed)
condition_set: 10 µM unless noted
About 83,000 compounds went through this panel and 20% of them were active in at least one assay; those are over-represented in the sample as a whole.
assay_readout: growth (%)

[
  {
    "smiles_notation": "O=C(CSc1nc2ccccc2c(=O)n1-c1ccc(S(=O)(=O)Nc2ccc(Cl)nn2)cc1)Nc1ccc(S(=O)(=O)Nc2ccc(Cl)nn2)cc1",
    "unit_abbreviation": "%",
    "value_observed": 101
  },
  {
    "smiles_notation": "CN(C)c1ccc(/C=N/Nc2nc(N/N=C/c3ccc(N(C)C)cc3)nc(N3CCCCC3)n2)cc1",
    "unit_abbreviation": "%",
    "value_observed": 96.2
  },
  {
    "smiles_notation": "COc1cc(OC)cc(-c2cc(-c3c[nH]c4ccccc34)nc(-c3c[nH]c4ccccc34)c2C#N)c1",
    "unit_abbreviation": "%",
    "value_observed": 92.1
  },
  {
    "smiles_notation": "CCCCc1nc2c(N)nc3ccccc3c2n1Cc1ccc(OC)cc1",
    "unit_abbreviation": "%",
    "value_observed": 68.5
  },
  {
    "smiles_notation": "CCN(CC)CCOc1ccc(C(=C(c2ccccc2)C2CCCC2)c2ccc(OCCN(CC)CC)cc2)cc1",
    "unit_abbreviation": "%",
    "value_observed": 2.43
  },
  {
    "smiles_notation": "O=C1Nc2cc(Cl)ccc2/C1=C\\c1ccc(OCc2ccccc2)cc1",
    "unit_abbreviation": "%",
    "value_observed": 99.8
  },
  {
    "smiles_notation": "COc1ccc(/C=N/NC(=O)c2c(N)nn(C)c2Nc2ccccc2)cc1Oc1ccccc1",
    "unit_abbreviation": "%",
    "value_observed": 93.8
  },
  {
    "smiles_notation": "CCCNNC(=O)c1ccc(-c2ccc(NC(=O)CCCCCCC(=O)N[C@H](C(=O)N3C[C@H](O)C[C@H]3C(=O)N[C@@H](C)c3ccc(-c4scnc4C)cc3)C(C)(C)C)cc2)cc1",
    "unit_abbreviation": "%",
    "value_observed": 10
  }
]

---

System: SR leukemia
assay_info: NCI-60 one-dose screen, 48 h (100 = growth as untreated, 0 = no growth, -100 = all killed)
condition_set: 10 µM unless noted
Description: Growth inhibition of the SR human tumor cell line is measured as a screen for anti-cancer activity. Cells are grown in 96 well plates and exposed to the test compound for 48 hours. Compounds are tested at a single concentration, which is 10^-5 M for most compounds. The reported endpoint is percent growth (GI% or GIPRCNT), where numbers from 0 - 100% represent growth inhibition, and numbers from -100% - 0 represent cell death. For example, a value of 40 represents 60% growth inhibition. […]
About 83,000 compounds went through this panel and 20% of them were active in at least one assay; those are over-represented in the sample as a whole.
assay_readout: growth (%)

[
  {
    "smiles_notation": "O=C1Nc2cc(Cl)ccc2/C1=C\\c1ccc(OCc2ccccc2)cc1",
    "unit_abbreviation": "%",
    "value_observed": 105
  },
  {
    "smiles_notation": "CC(C)(C)OC(=O)NCc1ccc(CNc2c([N+](=O)[O-])cnc3ccccc23)cc1",
    "unit_abbreviation": "%",
    "value_observed": 37.1
  },
  {
    "smiles_notation": "C#Cc1nc(/C=C\\CCCCCCC(=O)NO)cs1",
    "unit_abbreviation": "%",
    "value_observed": -19.7
  },
  {
    "smiles_notation": "COC(=O)N1CCN(CCNCc2ccc(NC(=O)c3ccc(C)c(C#Cc4cnc5cccnn45)c3)cc2C(F)(F)F)CC1",
    "unit_abbreviation": "%",
    "value_observed": -7.7
  },
  {
    "smiles_notation": "CC(C)Sc1nc(-c2ccccc2)c(C#N)c(N2CCOCC2)n1",
    "unit_abbreviation": "%",
    "value_observed": 78.9
  }
]

---

System: DU-145 prostate
assay_info: NCI-60 one-dose screen, 48 h
condition_set: 10 µM unless noted
Compounds without any hit were thinned out: in the full panel of roughly 83,000, 20% have a hit. The source made the active and inactive calls. The calls were made as follows: active = growth percent below 10; inactive = the rest.
Outcome codes: active, inactive

[
  {
    "molecule": "CN1CCN(c2ccc(Nc3nc(NCCCNS(=O)(=O)c4ccc(F)cc4)c4sccc4n3)cc2)CC1",
    "discrete_label": "inactive"
  },
  {
    "molecule": "O=C(CCCCCCNC(=O)C(O)(O)C(F)(F)F)Nc1ccc(-c2ccccc2)cc1",
    "discrete_label": "inactive"
  },
  {
    "molecule": "Cc1[nH]c(C(=O)Nc2ccccc2OCc2cccc(C(=O)NC3CCNC3)c2)c(Cl)c1Cl (centres undefined)",
    "discrete_label": "active"
  },
  {
    "molecule": "O=C1c2ccccc2C23C(=C(c4cncnc4)c4ccccc42)CCCN13 (centres undefined)",
    "discrete_label": "inactive"
  },
  {
    "molecule": "Cc1ccc2c(n1)C(=O)C(Cl)=C(Nc1cccc(C(F)(F)F)c1)C2=O",
    "discrete_label": "inactive"
  },
  {
    "molecule": "NCCNC(=O)c1cccc(COc2ccccc2NC(=O)c2cc(Cl)c(Cl)[nH]2)c1",
    "discrete_label": "inactive"
  },
  {
    "molecule": "COC(=O)N1CCN(CCNCc2ccc(NC(=O)c3ccc(C)c(C#Cc4cnc5cccnn45)c3)cc2C(F)(F)F)CC1",
    "discrete_label": "inactive"
  },
  {
    "molecule": "COc1ccccc1/C=C1\\Oc2ccc(O)c(O)c2C1=O",
    "discrete_label": "inactive"
  },
  {
    "molecule": "CCCc1cc2cc(-n3nc(CC)c4c3CC(C)(C)CC4=O)cc(NC3CCC(O)CC3)c2c(=O)[nH]1 (centres undefined)",
    "discrete_label": "inactive"
  },
  {
    "molecule": "Cc1ccccc1N1CCN(C2=C(Cl)C(=O)c3ncccc3C2=O)CC1",
    "discrete_label": "inactive"
  },
  {
    "molecule": "CC1=C(SCC(=O)OCCCCCC(C)C)C(=O)c2ccccc2C1=O",
    "discrete_label": "inactive"
  },
  {
    "molecule": "COc1ccccc1N1CCN(C2=C(Cl)C(=O)c3ncccc3C2=O)CC1",
    "discrete_label": "inactive"
  },
  {
    "molecule": "CC(=O)N1N=C(c2cc3ccccc3oc2=O)CC1c1cn(-c2ccccc2)nc1-c1ccc(C)cc1 (centres undefined)",
    "discrete_label": "inactive"
  },
  {
    "molecule": "COc1ccc(-c2c3c(cn2Cc2cccc(OC)c2)-c2oncc2CCC3)cc1",
    "discrete_label": "inactive"
  },
  {
    "molecule": "COc1ccc(C(C)=C(c2ccc(OCCN(C)C)cc2)c2ccc(OCCN(C)C)cc2)cc1",
    "discrete_label": "inactive"
  },
  {
    "molecule": "C=C(C)[C@@H]1CC[C@]2(COP(=O)(OCC)OCC)CC[C@]3(C)[C@H](CC[C@@H]4[C@@]5(C)CC[C@H](OP(=O)(OCC)OCC)C(C)(C)[C@@H]5CC[C@]43C)[C@@H]12",
    "discrete_label": "inactive"
  },
  {
    "molecule": "Brc1ccc(-c2cc(-c3ccc4c(c3)OCCO4)n[nH]2)s1",
    "discrete_label": "inactive"
  },
  {
    "molecule": "Cc1ccc(C(=O)Nc2ccc(CNCCN3CCNCC3)c(C(F)(F)F)c2)cc1C#Cc1cnc2cccnn12",
    "discrete_label": "active"
  },
  {
    "molecule": "NC1[C@H]2CN(c3cnc(C(=O)Nc4cc(F)cc5cccnc45)cn3)C[C@@H]12 (some centres undefined)",
    "discrete_label": "inactive"
  }
]
